Each item that follows carries a reported ELISA Fc Control (RSU).
biological target: unrelated Fc-fused recombinant protein; assay: ELISA, lysate on plate-bound antigen
Give the value, in units of RSU, as a plain number.

Solved entries (count: 3):
>  <BINDER>
ISOP194AR9P1F2 (designed binder, not shown: small tags and cut ends, FN3 domain; E. coli lysate in the ELISA) LPAPKNLVISRVTEDSARLSWEWLEHFDSFLIQYQESEKVGEAIVLTVPGSERSYDLTGLKPGTEYTVSIYGVYNRKVNFYSNPLSAIFTT

>  <MEASURED_VALUE>
1920

$$$$
>  <BINDER>
ISOP121BR5P1A6 (designed binder, not shown: small tags and cut ends, FN3 domain; E. coli lysate in the ELISA) LPAPKNLVVSRVTEDSARLSWASWLVAFFDSFLIQYQESEKVGEAIVLTVPGSERSYDLTGLKPGTEYTVSIYGVYQRHASAFVSNPLSAIFTT

>  <MEASURED_VALUE>
720

$$$$
>  <BINDER>
ISOP194AR9P1H1 (designed binder, not shown: small tags and cut ends, FN3 domain; E. coli lysate in the ELISA) LPAPKNLVVSRVTEDSARLSWWRVLGHSHFFDSFLIQYQESEKVGEAIVLTVPGSERSYDLTGLKPGTEYTVSIYGVYNRKVNFYSNPLSAIFTT

>  <MEASURED_VALUE>
15700

$$$$

For this binder ( ISOP194AR9P1E3 (designed binder, not shown: small tags and cut ends, FN3 domain; E. coli lysate in the ELISA) LPAPKNLVVSRVTEDSARLSWKRSDDEWFDSFLIQYQESEKVGEAIVLTVPGSERSYDLTGLKPGTEYTVSIYGVYQRAALWFSNPLSAIFTT ), measured ELISA Fc Control (RSU) is 1120

For this binder ( ISOP121BR5P1D3 (designed binder, not shown: small tags and cut ends, FN3 domain; E. coli lysate in the ELISA) LPAPKNLVVSRVTEDSARLSWYEDNTERFDSFLIQYQESEKVGEAIVLTVPGSERSYDLTGLKPGTEYTVSIYGVYIRVQVLWFSNPLSAIFTT ), measured ELISA Fc Control (RSU) is 800

For this binder ( ISOP121BR5P1C9 (designed binder, not shown: small tags and cut ends, FN3 domain; E. coli lysate in the ELISA) LPAPKNLVVSRVTEDSARLSWIWPDKHEFFDSFLIQYQESEKVGEAIVLTVPGSERSYDLTGLKPGTEYTVSIYGVYDRKYANWSSNPLSAIFTT ), measured ELISA Fc Control (RSU) is 1120

For this binder ( ISOP121AR5P1E7 (designed binder, not shown: small tags and cut ends, FN3 domain; E. coli lysate in the ELISA) LPAPKNLVVSRVTEDSARLSWHVYHEIDYFDSFLIQYQESEKVGEAIVLTVPGSERSYDLTGLKPGTEYTVSIYGVYQRKVEFYSNPLSAIFTT ), measured ELISA Fc Control (RSU) is 4240

For this binder ( ISOP121BR5P1E7 (designed binder, not shown: small tags and cut ends, FN3 domain; E. coli lysate in the ELISA) LPAPKNLVVSRVTEDSARLSWRKQEQYFDSFLIQYQESEKVGEAIVLTVPGSERSYDLTGLKPGTEYTVSIYGVKKWPSTTTTSNPLSAIFTT ), measured ELISA Fc Control (RSU) is 800

For this binder ( ISOP121BR5P1D1 (designed binder, not shown: small tags and cut ends, FN3 domain; E. coli lysate in the ELISA) LPAPKNLVVSRVTEDSARLSWKWGGEFFDSFLIQYQESEKVGEAIVLTVPGSERSYDLTGLKPGTEYTVSIYGVYQRNWHHWYSNPLSAIFTT ), measured ELISA Fc Control (RSU) is 1040
